molecular target: T-p53C-Y220C (Homo sapiens, UniProt P04637, M133L/N239Y/N268D/V203A/Y220C); construct: For all other experiments, the DNA coding for residues 94-312 of T-p53C was inserted into a modified pET24a(+) vector; 6xHis tag + B. stearothermophilus dihydrolipoyl acetyltransferase lipoyl domain (aa 1-85) + TEV site (N, cleaved yes); made in house; host or cells: Escherichia coli BL21 (DE3) or C41 (DE3); test: Thermal denaturation using capillary DSC; format: binding; settings: increase in Tm on adding 250 μM of the test compound; 20 μM protein
property.measured: ΔTm (°C)

These recorded examples may help you get a feel for the data.
compound: CCn1c2ccccc2c2cc(NC(=O)COC(=O)c3ccc(-n4cnnn4)cc3)ccc21 [PK138]
recorded.result: 0.54

compound: CCn1c2ccccc2c2cc(CN3CCC(N4CCCCC4)CC3)ccc21 [PK188]
recorded.result: 0.39

compound: CCn1c2ccccc2c2cc(NC(=O)CN(CC(N)=O)C(C)C)ccc21 [PK161]
recorded.result: 0.47

[1] CCn1c2ccccc2c2cc(CNCCN(C)C)ccc21 [PK207]
[2] CCCN1CCN(C(C)C(=O)Nc2ccc3c(c2)c2ccccc2n3CC)CC1 (stereo not drawn) [PK142]
q: Lower ΔTm: 1 or 2 ? Please respond with the label that marks your chosen entry.
a: 2
(2: 0.26 °C, 1: 0.57 °C)

[I] CCn1c2ccccc2c2cc(NC(=O)CN3C(=O)c4ccccc4S3(=O)=O)ccc21 [PK117]
[II] CCn1c2ccccc2c2cc(NC(=O)C(C)Sc3nc(N)cc(=O)[nH]3)ccc21 (stereo not drawn) [PK143]
[III] CCn1c2ccccc2c2cc(CNC)ccc21 [PK083]
q: hey, can you rank those compounds up there by ΔTm? biggest number first please Enter labels, ranked according to the request.
a: III, I, II

[I] CCn1c2ccccc2c2cc(CN3CCCC(N4CCOCC4)C3)ccc21 (stereo not drawn) [PK225]
[II] CCn1c2ccccc2c2cc(CNCCCn3cc(C(=O)N4CCOCC4)nn3)ccc21 [PK219]
q: Task for the reader: decide whether I or II has the larger ΔTm. Lab note: record the label of whichever item you select.
a: II

[P] CCn1c2ccccc2c2cc(CNCCO)ccc21 [PK211]
[Q] CCn1c2ccccc2c2cc(NC(=O)CN3C(=O)NC(C)(c4ccc(C)cc4)C3=O)ccc21 (stereo not drawn) [PK110]
q: Form: Entry with minimum ΔTm (choose one): P / Q Pick one; state its label.
a: Q
(Q: 0.37 °C, P: 0.58 °C)
